- assay_system: hROMK (hKir1.1) (Homo sapiens (Human))
- Sequence (P48048 whole entry): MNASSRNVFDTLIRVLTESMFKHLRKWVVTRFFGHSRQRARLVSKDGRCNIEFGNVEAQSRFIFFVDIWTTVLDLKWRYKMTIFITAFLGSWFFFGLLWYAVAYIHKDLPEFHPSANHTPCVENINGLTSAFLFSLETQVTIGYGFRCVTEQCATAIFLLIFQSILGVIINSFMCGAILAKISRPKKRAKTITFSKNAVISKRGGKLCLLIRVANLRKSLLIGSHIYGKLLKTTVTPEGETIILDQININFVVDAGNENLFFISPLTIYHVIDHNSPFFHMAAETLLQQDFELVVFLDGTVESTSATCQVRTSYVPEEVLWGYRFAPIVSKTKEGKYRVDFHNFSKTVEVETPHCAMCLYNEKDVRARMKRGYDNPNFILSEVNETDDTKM
- protocol_notes: Thallium Flux Assay (ROMK channel functional thallium flux assay, FLIPR-Tetra)
- assay_setup: HEK293 cells stably expressing hROMK (hKir1.1); 30 min incubation with test compound
recorded_endpoint: IC50 (nM)

> print(dat)
                                   molecule   u  quantitative.result
1  Cc1c([C@@H](O)CN2CCC3(CC2)CC(=O)N(C2=CC(=O)CC2)C3)ccc2c1COC2=O [Example 12]  nM                  521
2  CC1=C(N2CCC3(CCCN(CC(O)c4ccc(-n5cnnn5)nc4C)CC3)C2=O)CCC1=O (single isomer, unassigned) [Example 3A]  nM                  323
3  CC1=C(N2CCC3(CC4CCC(C3)N4CC(O)c3ccc(-n4cnnn4)cn3)C2=O)CCC1=O (stereo not shown) [Example 6]  nM                  294

A. Cc1nc(-n2cnnn2)ccc1C(O)CN1CCC2(CC1)CCN(C1=CS(=O)(=O)CC1)C2=O (single isomer, unassigned) [Example 1]
B. CC1=C(N2CCC3(CCCN(C[C@H](O)c4ccc5c(c4C)COC5=O)CC3)C2=O)CCC1=O (stereo partly shown) [Example 39]
Problem: Given the entries A and B , determine which has the lower reported IC50. State your choice using its label.
B

P. CC1=C(N2CCOC3(CCN(C[C@H](O)c4ccc5c(c4C)COC5=O)CC3)C2=O)CCC1=O [Example 45]
Q. CC1=C(N2CCC3(CCCN(C[C@H](O)c4ccc5c(c4C)COC5=O)CC3)C2=O)CCC1=O (stereo partly shown) [Example 40]
Would you let me know which has the greater IC50 value, P or Q ? State your choice using its label.
P
